# tested_on: T1, cynomolgus monkey (Macaca fascicularis) transferrin receptor 1 (cynomolgus monkey (Macaca fascicularis), UniProt Q5RDH6 89-760 (Pongo abelii entry), limits assumed)
# T1 construct: Recombinant protein used in ELISA and SPR; also called cTfR1; cyno TfR1
# T1 chain: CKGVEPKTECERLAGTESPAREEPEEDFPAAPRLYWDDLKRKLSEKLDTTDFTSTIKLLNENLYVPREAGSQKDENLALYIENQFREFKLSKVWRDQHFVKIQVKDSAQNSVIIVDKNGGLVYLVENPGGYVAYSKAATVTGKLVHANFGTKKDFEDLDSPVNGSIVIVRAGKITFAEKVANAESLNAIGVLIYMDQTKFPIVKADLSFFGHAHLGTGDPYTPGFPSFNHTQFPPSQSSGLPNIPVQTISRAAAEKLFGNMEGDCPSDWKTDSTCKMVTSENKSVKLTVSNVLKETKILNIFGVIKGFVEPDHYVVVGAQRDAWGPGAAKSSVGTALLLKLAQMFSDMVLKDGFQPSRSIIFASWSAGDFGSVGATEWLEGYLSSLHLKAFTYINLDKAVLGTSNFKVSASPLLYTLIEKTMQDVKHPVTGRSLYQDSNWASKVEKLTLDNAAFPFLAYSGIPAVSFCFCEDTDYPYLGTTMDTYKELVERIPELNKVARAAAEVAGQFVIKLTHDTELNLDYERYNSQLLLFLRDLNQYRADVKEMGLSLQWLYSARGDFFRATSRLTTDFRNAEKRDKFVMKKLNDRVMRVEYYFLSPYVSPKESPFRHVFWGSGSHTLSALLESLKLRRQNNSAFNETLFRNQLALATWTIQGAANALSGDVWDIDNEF
# test_summary: ELISA, plate-coated cyno TfR1, Fab-ASO300 conjugate; printed as 'Conjugate binding affinity ELISA'
endpoint: EC50 (nM)
// units = nM; emit number, no label

A selection of reference data follows.
3M12 (VH3/Vk2) Fab conjugated to DMPK-targeting oligonucleotide ASO300 (Fab, V domains shown, Fab covalently conjugated to antisense oligonucleotide ASO300 (linker of Formula (C)); also called 3M12 (VH3/Vk2) conjugate; DMPK oligo conjugate) VH: QVQLQESGPGLVKPSQTLSLTCSVTGYSITSGYYWNWIRQPPGKGLEWMGYITFDGANNYNPSLKNRVSISRDTSKNQFSLKLSSVTAEDTATYYCTRSSYDYDVLDYWGQGTTVTVSS VL: DIQMTQSPSSLSASVGDRVTITCRASQDISNFLNWYQQKPGQPVKLLIYYTSRLHSGVPSRFSGSGSGTDFTLTISSLQPEDFATYFCQQGHTLPYTFGQGTKLEIKR :: 2.9
5H12 (VH5-C33Y/Vk3) Fab conjugated to DMPK-targeting oligonucleotide ASO300 (Fab, V domains shown, Fab covalently conjugated to ASO300; also called 5H12 (VH5-C33Y/Vk3) conjugate) VH: QVQLVQSGAEVKKPGASVKVSCKASGYSFTDYYINWVRQAPGQGLEWMGWIYPGSGNTRYSERFKGRVTITRDTSASTAYMELSSLRSEDTAVYYCAREDYYPYHGMDYWGQGTLVTVSS VL: DIVLTQSPDSLAVSLGERATINCRASESVDGYDNSFMHWYQQKPGQPPKLLIFRASNLESGVPDRFSGSGSRTDFTLTISSLQAEDVAVYYCQQSSEDPWTFGQGTKLEIKR :: 2.3
5H12 (VH5-C33D/Vk4) Fab conjugated to DMPK-targeting oligonucleotide ASO300 (Fab, V domains shown, Fab covalently conjugated to ASO300; also called 5H12 (VH5-C33D/Vk4) conjugate) VH: QVQLVQSGAEVKKPGASVKVSCKASGYSFTDYDINWVRQAPGQGLEWMGWIYPGSGNTRYSERFKGRVTITRDTSASTAYMELSSLRSEDTAVYYCAREDYYPYHGMDYWGQGTLVTVSS VL: DIVMTQSPDSLAVSLGERATINCRASESVDGYDNSFMHWYQQKPGQPPKLLIFRASNLESGVPDRFSGSGSGTDFTLTISSLQAEDVAVYYCQQSSEDPWTFGQGTKLEIKR :: 10.2

Let us move to another entry and its EC50.
Request the reported EC50 associated with 3A4 (VH3-N54T/Vk4) Fab conjugated to DMPK-targeting oligonucleotide ASO300 (Fab, V domains shown, Fab covalently conjugated to ASO300; also called 3A4 (VH3-N54T/Vk4) conjugate) VH: EVQLVQSGSELKKPGASVKVSCTASGFNIKDDYMYWVRQPPGKGLEWIGWIDPETGDTEYASKFQDRVTVTADTSTNTAYMELSSLRSEDTAVYYCTLWLRRGLDYWGQGTLVTVSS VL: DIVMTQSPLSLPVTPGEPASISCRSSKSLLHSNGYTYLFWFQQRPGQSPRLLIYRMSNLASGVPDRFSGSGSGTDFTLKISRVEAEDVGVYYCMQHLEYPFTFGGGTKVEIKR
4.7
